Every entry's value here was drawn from ChEMBL document CHEMBL4513216.

experiment: Toxicity liver stage against HepG2, at 10uM; type: cell-based; set-up: test concentration 10 uM, cell line HepG2-A16-CD81EGFP; conditions: human, HepG2-A16-CD81EGFP cells; read-out: INHIBITION
Readings of cytotoxicity at 10 µM for the listed compounds
The figure you give is taken to be in %; do not add the unit.

Before answering, review these 3 worked examples.
> print(dat)
                                   compound        reported.metric  reported.result
1  COC1CCN(CCNC(=O)NC(C)c2cccc(Cl)c2)CC1 (stereo unspecified)  cytotoxicity at 10 µM            -2.46
2      Cc1ccc(NC2CCN(C(=O)CCc3nccs3)CC2)nn1  cytotoxicity at 10 µM            -9.93
3  CN(Cc1cccc(F)c1)C(=O)CN1CCCC1CCc1ccccc1 (stereo unspecified)  cytotoxicity at 10 µM              -12

Entry under review: Cc1cnn(CCNCC(O)COc2cc(Cl)ccc2Cl)c1 (stereo unspecified) . Reported cytotoxicity at 10 µM?
2.22

Entry under review: Nc1nc(C2CCN(C(=O)c3cncs3)CC2)cs1 . Reported cytotoxicity at 10 µM?
-1.49

Entry under review: Cc1ccc(C(NC(=O)C2CC2)c2cccc(S(C)(=O)=O)c2)cc1 (stereo unspecified) . Reported cytotoxicity at 10 µM?
-9.8

###

assay: Toxicity liver stage against HepG2, at 10uM; assay type: cell-based; design: test concentration 10 uM, cell line HepG2-A16-CD81EGFP; conditions: human, HepG2-A16-CD81EGFP cells; read-out: INHIBITION
reported.metric: cytotoxicity at 10 µM

Before answering, review these 5 worked examples.
> print(dat)
                                   molecule  reported.result
1       Cc1nnc2n1CCN(Cc1csc(-c3ncccn3)n1)C2           -38.1%
2  CC(C)Nc1nc2c(c(NC3CC3)n1)CN(C(=O)Cc1ccsc1)CC2            10.4%
3  COCCn1/c(=N\C(=O)CN(C)S(C)(=O)=O)sc2cc(C)ccc21           -11.7%
4  COc1ccc(Cl)cc1CNC(=O)CN1CCC2(CCOC2)C1 (stereo unspecified)           -61.7%
5  Cc1nc(CC(C)C)cc(C(=O)N2C[C@@H](CN(C)C)[C@@H](CO)C2)n1           0.868%

Entry under review: CC(C)Cc1nc(OCC#N)c(C#N)c2c1CCC2 . Reported cytotoxicity at 10 µM?
-1.63%

Entry under review: CCCc1nc(C(=O)NCCN2CCC(c3ccccc3C)C2)cs1 (stereo unspecified) . Reported cytotoxicity at 10 µM?
-37.9%

Entry under review: Cn1c(SCC(O)COCc2ccccc2Cl)nnc1C1CC1 (stereo unspecified) . Reported cytotoxicity at 10 µM?
-2.24%

Entry under review: c1cnc(N2CC[C@@H](OCC3CC3)[C@@H]2Cc2cccnc2)nc1 . Reported cytotoxicity at 10 µM?
3.26%

Entry under review: OC(CN1CCOCC1)c1cc(Cl)ccc1Cl (stereo unspecified) . Reported cytotoxicity at 10 µM?
-1.57%

Entry under review: CCn1c(-c2ccccc2)nn(CC(=O)NCCc2c[nH]cn2)c1=O . Reported cytotoxicity at 10 µM?
-2.99%

###

test: Toxicity liver stage against HepG2, at 10uM; assay type: cell-based; set-up: test concentration 10 uM, cell line HepG2-A16-CD81EGFP; conditions: human, HepG2-A16-CD81EGFP cells; read-out: INHIBITION
Readings of cytotoxicity at 10 µM for the listed compounds
The figure you give is taken to be in %; do not add the unit.

Before answering, review these 3 worked examples.
> print(dat)
                                   compound  reported.result
1  O=C(Nc1ccc(Cl)cn1)C1CCCN(CCc2ccncc2)C1 (configuration not stated)            -8.87
2  CS(=O)(=O)N1CCCC12CCCN(c1nccs1)C2 (configuration not stated)             4.92
3      O=C(NCCCn1ccnc1)Nc1ccn(CCc2ccccn2)n1           -0.386

Now look at this one.
Entry under review: CCN(CC)c1ccc(NS(=O)(=O)c2cnn(CC)c2)cn1 . Reported cytotoxicity at 10 µM?
3.07

###

Readings of cytotoxicity at 10 µM for the listed compounds
experiment: Toxicity liver stage against HepG2, at 10uM; assay type: cell-based; design: test concentration 10 uM, cell line HepG2-A16-CD81EGFP; details: human, HepG2-A16-CD81EGFP cells; read-out: INHIBITION
State the result as a value with its unit after it.

Before answering, review these 2 worked examples.
> print(dat)
                                   compound        reported.metric  reported.result
1        Cc1cc(N2CCC(n3cc(CCCO)nn3)CC2)ccn1  cytotoxicity at 10 µM             3.6%
2  CCN1CCCC(NC(=O)c2ccc(C)[nH]c2=O)C1 (centres undefined)  cytotoxicity at 10 µM            9.95%

Entry under review: Cc1ccc(C(=O)N2CCC3(CC2)CCN(CCN(C)C)C3=O)cn1 . Reported cytotoxicity at 10 µM?
5.36%

Entry under review: OCC(O)CSCc1nnc(-c2cccc(F)c2)o1 (centres undefined) . Reported cytotoxicity at 10 µM?
15.4%

Entry under review: Cc1nn(C)c(N2CCOCC2)c1CNCc1ccc(Cl)s1 . Reported cytotoxicity at 10 µM?
4.09%

Entry under review: N#Cc1ccc(OCC(=O)N2CCCC(n3cccn3)C2)cc1 (centres undefined) . Reported cytotoxicity at 10 µM?
-2.83%

Entry under review: Cc1csc(N2CCN(Cc3cnc4c(c3)c(C)nn4C)CC2)n1 . Reported cytotoxicity at 10 µM?
-0.54%

Entry under review: CSCCC(=O)N1CC[C@@H](N2CCN(c3ccccc3F)CC2)[C@H](O)C1 . Reported cytotoxicity at 10 µM?
-91.4%

Entry under review: Cc1nn(C)c(Oc2ccccc2)c1CNC1CCOc2ccccc21 (centres undefined) . Reported cytotoxicity at 10 µM?
4.88%

Entry under review: CCN(Cc1cnn(C)c1)C[C@H]1CC[C@@H](Cc2cccc(C#N)c2)O1 . Reported cytotoxicity at 10 µM?
0.194%

###

assay: Toxicity liver stage against HepG2, at 10uM; assay type: cell-based; design: test concentration 10 uM, cell line HepG2-A16-CD81EGFP; settings: human, HepG2-A16-CD81EGFP cells; read-out: INHIBITION
Readings of cytotoxicity at 10 µM for the listed compounds
The figure you give is taken to be in %; do not add the unit.

> print(dat)
                                   compound        reported.metric  reported.result
1  COc1cccc([C@H]2CN(C(=O)c3cc(C)on3)C[C@@H]2N)c1  cytotoxicity at 10 µM             3.14

Entry under review: CN(C)C(=O)NCc1cc2n(n1)CCCN(CC1[C@H]3CNC[C@@H]13)C2 (stereo partly drawn) . Reported cytotoxicity at 10 µM?
-5.77

Entry under review: CNC(=O)CN1CCOC(c2cccc(N)n2)C1 (stereo not drawn) . Reported cytotoxicity at 10 µM?
-5.22

Entry under review: CN(C)C(=O)N1CCCn2nc(CNC(=O)CCc3ccsc3)cc2C1 . Reported cytotoxicity at 10 µM?
-1.77

Entry under review: CCS(=O)(=O)c1ncc(CN(C)Cc2ccccc2OC)n1CCOC . Reported cytotoxicity at 10 µM?
-2.23

###

assay: Toxicity liver stage against HepG2, at 10uM; assay type: cell-based; design: test concentration 10 uM, cell line HepG2-A16-CD81EGFP; conditions: human, HepG2-A16-CD81EGFP cells; read-out: INHIBITION
Readings of cytotoxicity at 10 µM for the listed compounds
The figure you give is taken to be in %; do not add the unit.

Before answering, review these 6 worked examples.
> print(dat)
                                   compound  reported.result
1       Cc1ncsc1CNC(=O)CCN1CCN(c2ccccn2)CC1             2.31
2      Cc1nc(CSCCC(=O)NCc2ccc(N(C)C)cc2)cs1            -14.2
3    CN(Cc1cnn(C)c1)S(=O)(=O)N1CCc2ccccc2C1            -6.47
4  Cc1ccc(-c2cnc3n2CCN(C)C32CCN(CC3CC3)CC2)cc1               11
5  CN1CC(=O)N(c2ccccc2)CC12CCN(CC1CCOCC1)C2 (stereo unspecified)             4.22
6  CNC(=O)[C@H]1C[C@H]2OCC[C@H]2N(Cc2ccc(F)cc2)C1             3.42

Entry under review: CS(=O)(=O)NCC1CCCN(C(=O)c2ccc(Cl)o2)C1 (stereo unspecified) . Reported cytotoxicity at 10 µM?
-10.2

Entry under review: CCc1nc2c(s1)C(N(C)C(=O)c1csnn1)CCC2 (stereo unspecified) . Reported cytotoxicity at 10 µM?
-3.71

Entry under review: CN(C)C(=O)c1ccc2c(c1)N(C)C(CC(=O)NC(C)(C)CO)CO2 (stereo unspecified) . Reported cytotoxicity at 10 µM?
8.38

Entry under review: COCc1nc(C(=O)N2CCCC2Cn2cc(C)cn2)cs1 (stereo unspecified) . Reported cytotoxicity at 10 µM?
-1.36

Entry under review: Cn1c(=O)oc2ccc(NC(=O)N3CCc4ccccc4C3)cc21 . Reported cytotoxicity at 10 µM?
-5.66
